- Assay Info: Mouse blood levels after single intramuscular injection
- Assay type: in vivo, mice
- Condition Set: 20 mg/kg im
# key: entry, value: half-life
Property Measured: half-life

Compound: CSc1scc[n+]1CC1=C(C(=O)[O-])N2C(=O)C(NC(=O)/C(=N\OC(C)(C)C(=O)O)c3csc(N)n3)[C@H]2SC1 (stereo partly drawn) [Example 1]
Reported: 14 min
--
Compound: CSc1scc[n+]1CC1=C(C(=O)[O-])N2C(=O)C(NC(=O)/C(=N\OC3(C(=O)O)CCC3)c3csc(N)n3)[C@H]2SC1 (stereo partly drawn) [Example 2]
Reported: 11 min
--
Compound: CO/N=C(\C(=O)NC1C(=O)N2C(C(=O)[O-])=C(C[n+]3ccsc3SC)CS[C@H]12)c1csc(N)n1 (stereo partly drawn) [Example 3]
Reported: 46 min
